ASSAY TARGET: FGFR1 (UniProt P11362)
Sequence (P11362 whole entry, looked up): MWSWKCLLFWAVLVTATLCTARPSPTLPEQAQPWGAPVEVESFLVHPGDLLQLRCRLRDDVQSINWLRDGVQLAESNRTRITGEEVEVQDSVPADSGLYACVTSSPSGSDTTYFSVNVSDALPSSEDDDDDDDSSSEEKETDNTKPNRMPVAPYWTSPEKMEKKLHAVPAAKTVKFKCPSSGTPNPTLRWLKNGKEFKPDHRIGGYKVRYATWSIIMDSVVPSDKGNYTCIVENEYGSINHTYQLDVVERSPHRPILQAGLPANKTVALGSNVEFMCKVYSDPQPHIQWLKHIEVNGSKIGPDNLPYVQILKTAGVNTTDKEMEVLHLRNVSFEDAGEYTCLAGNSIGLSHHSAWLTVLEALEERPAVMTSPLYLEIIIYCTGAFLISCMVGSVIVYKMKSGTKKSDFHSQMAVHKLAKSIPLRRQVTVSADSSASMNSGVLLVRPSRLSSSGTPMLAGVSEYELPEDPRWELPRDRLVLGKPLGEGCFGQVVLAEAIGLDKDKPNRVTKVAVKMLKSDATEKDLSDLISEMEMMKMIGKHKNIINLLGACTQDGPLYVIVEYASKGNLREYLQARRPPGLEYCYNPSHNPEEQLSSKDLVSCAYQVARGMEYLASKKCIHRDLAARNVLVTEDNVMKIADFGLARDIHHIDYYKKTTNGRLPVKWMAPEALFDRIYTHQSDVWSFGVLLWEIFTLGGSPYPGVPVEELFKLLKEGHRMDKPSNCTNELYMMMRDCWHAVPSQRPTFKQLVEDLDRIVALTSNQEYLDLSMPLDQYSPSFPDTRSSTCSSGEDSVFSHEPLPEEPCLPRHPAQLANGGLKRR
EXPERIMENTAL PROTOCOL: phosphorylation enrichment, bacterial display (enrichment ratio); higher = better substrate or ligand; peptides without Tyr show the background
ASSAY ENDPOINT: phosphorylation enrichment

SEQUENCE TEXT	READOUT NUMBER
SGGMDYGMVGG [TNRC6B_Y1382]	0.404
GYRVYYTPDSR [PTPRF_Y451]	0.73
MGSYNYLGFAR [SPTLC2_Y178]	1.3
RIDPDYVGRVR [IGSF9_Y81]	0.496
NLNGKYNKPRA [ANGPTL3_Y417]	0.344
WFKKFYDANFD [MAPRE2_Y158_YF]	0.378
ADDSYYTVRSA [ZAP70_Y493_A495V]	7.54
TLKVGYKEKQR [EPHA3_Y659_T660K]	0.348
LITSVYGCSRQ [TMPRSS6_Y290]	1.04
EILLSDLRTGY [TGM1_Y365_Y365D]	0.511
NSIGNYYKPWF [DHCR24_Y299]	5.3
FALAEYTEVKT [ALDH1A3_Y497_YF]	0.894
HEHKGYNANFC [TGFB2_Y341_P338H]	0.7
GYGGGYGGVLT [KRT19_Y65_A60G]	0.468
SVTCTYSPALF [TP53_Y126_N131Y_YF]	0.542
SDYSRYARTSI [TERT_Y949_S948R]	0.428
AFHGEYIPTVF [RAC2_Y32_P29H]	0.602
KRGVSYILKLA [SERPINB1_Y84_A82V]	0.534
TLNHQYDYTFD [CSNK1A1_Y292]	0.85
HVSISYDIPLT [GAB1_Y307_P311L]	1.09
GPRSLYNGLVA [UCP2_Y79]	0.396
KKHFSYAWPFY [BRDT_Y291]	0.495
AFQGKYTPSGQ [ALDOA_Y343_C339Y_YF]	0.309
DQLVKHGVNPG [TMPO_Y127_Y127H]	0.329
PTTKTYFPRFD [HBA1_Y43_H46R]	0.455
PRSRSYSSTSI [REPS2_Y462]	0.743
SVTCTYSAALN [TP53_Y126_P128A]	0.552
TTPGPYRSIYF [MPG_Y71]	0.44
PLLEYYRDIFT [CDAN1_Y713]	6.73

----------
ASSAY TARGET: FGFR3 (UniProt P22607)
Sequence (P22607 whole entry, looked up): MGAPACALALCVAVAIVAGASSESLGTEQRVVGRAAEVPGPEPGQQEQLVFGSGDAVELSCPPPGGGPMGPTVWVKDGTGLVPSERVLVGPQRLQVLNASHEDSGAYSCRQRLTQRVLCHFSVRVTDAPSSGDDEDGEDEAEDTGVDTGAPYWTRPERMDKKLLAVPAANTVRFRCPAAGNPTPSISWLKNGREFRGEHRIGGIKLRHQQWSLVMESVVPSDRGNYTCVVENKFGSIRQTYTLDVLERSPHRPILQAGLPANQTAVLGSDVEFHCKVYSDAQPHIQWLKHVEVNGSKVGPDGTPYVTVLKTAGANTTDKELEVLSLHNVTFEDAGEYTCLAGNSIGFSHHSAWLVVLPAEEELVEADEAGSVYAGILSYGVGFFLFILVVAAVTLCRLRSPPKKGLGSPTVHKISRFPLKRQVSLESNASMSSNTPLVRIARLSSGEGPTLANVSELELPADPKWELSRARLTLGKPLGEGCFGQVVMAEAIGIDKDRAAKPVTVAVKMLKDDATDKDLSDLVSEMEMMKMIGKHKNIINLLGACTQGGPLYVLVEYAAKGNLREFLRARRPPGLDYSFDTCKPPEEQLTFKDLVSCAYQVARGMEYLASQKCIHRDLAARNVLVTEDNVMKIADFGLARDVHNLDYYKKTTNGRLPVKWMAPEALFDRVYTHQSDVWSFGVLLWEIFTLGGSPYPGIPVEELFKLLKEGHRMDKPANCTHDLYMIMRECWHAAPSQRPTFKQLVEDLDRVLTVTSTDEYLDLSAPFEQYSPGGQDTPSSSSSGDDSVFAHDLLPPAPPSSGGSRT
EXPERIMENTAL PROTOCOL: phosphorylation enrichment, bacterial display (enrichment ratio); higher = better substrate or ligand; peptides without Tyr show the background
If the reported phosphorylation enrichment equals or exceeds 0.9, assign True. If not, assign False.

SEQUENCE TEXT	ASSAY TARGET	CATEGORY LABEL
KQLYAYKMLMA [TMC2_Y209]	FGFR3 (UniProt P22607)	False
NFDRIYIYHLR [MYOF_Y1137_V1136I]	FGFR3 (UniProt P22607)	False
RGVTRYIYNRE [HLA-DQB1_Y62_Y58G]	FGFR3 (UniProt P22607)	False
EYYENYIEELK [PARP4_Y218_F215Y]	FGFR3 (UniProt P22607)	True
QGCSIYKDYYR [PLA2G2D_Y82]	FGFR3 (UniProt P22607)	True
WVFNHYRCIIW [BRCA2_Y2624_W2626C_YF]	FGFR3 (UniProt P22607)	True
RVNSAYQEKVS [ACAN_Y100_D102E]	FGFR3 (UniProt P22607)	False
SKGFAYVHFDS [PABPC5_Y149_YF]	FGFR3 (UniProt P22607)	False
RSIGEYDVLRG [PRKDC_Y2936]	FGFR3 (UniProt P22607)	False
PLFRVYGLESL [INSR_Y94_L89P]	FGFR3 (UniProt P22607)	False
KSEFAYEIFDK [MYOM2_Y1024_L1022F]	FGFR3 (UniProt P22607)	False

----------
This listing pairs sequences with measured phosphorylation enrichment.
ASSAY TARGET: Fes (UniProt P07332)
Sequence (P07332 whole entry, looked up): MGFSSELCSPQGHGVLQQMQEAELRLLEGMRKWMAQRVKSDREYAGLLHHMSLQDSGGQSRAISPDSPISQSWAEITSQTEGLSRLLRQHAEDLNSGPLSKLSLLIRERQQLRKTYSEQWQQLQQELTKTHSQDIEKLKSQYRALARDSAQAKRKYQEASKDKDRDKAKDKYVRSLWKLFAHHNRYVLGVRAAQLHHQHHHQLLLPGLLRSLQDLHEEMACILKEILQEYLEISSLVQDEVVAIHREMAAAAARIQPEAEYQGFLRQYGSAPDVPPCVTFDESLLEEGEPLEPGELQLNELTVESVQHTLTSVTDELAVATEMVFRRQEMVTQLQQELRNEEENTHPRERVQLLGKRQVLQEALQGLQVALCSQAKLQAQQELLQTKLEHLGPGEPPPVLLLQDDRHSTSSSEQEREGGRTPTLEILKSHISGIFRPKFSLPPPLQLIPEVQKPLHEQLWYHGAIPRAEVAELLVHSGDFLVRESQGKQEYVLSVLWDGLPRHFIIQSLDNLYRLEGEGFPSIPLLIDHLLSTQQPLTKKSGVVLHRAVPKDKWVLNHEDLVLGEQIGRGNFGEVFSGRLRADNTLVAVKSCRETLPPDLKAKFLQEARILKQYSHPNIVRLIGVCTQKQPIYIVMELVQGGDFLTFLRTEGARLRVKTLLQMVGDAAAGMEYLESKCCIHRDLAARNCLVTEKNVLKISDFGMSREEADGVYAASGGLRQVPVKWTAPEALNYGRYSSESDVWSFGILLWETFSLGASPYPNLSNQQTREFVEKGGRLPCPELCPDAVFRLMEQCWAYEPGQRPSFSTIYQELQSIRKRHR
EXPERIMENTAL PROTOCOL: phosphorylation enrichment, bacterial display (enrichment ratio); higher = better substrate or ligand; peptides without Tyr show the background
ASSAY ENDPOINT: phosphorylation enrichment

SEQUENCE TEXT	READOUT NUMBER
RPASVYTKRCS [CPT2_Y508]	0.826
ETAENYLGFTA [HSPA9_Y181_H184Y_YF]	1.1
AAQNCYKVTNG [TPI1_Y105]	0.905
PVDTYYDSTRG [DYNC2H1_Y2231_M2227V]	1.12
YADGVYLALEE [DUOX2_Y70_Q71L]	1.31
YGAHNYHPLPV [OAT_Y55]	0.728
CPPKVYELMRA [ABL2_Y515]	1.04
GGGGSYNDFGN [HNRNPA1_Y312]	0.791
LIEQAYDNLHE [PRPF8_Y871_P874L]	1.38
EQKKYSNAMKK [SCN5A_Y1495_Y1495S]	0.53
FIGCIYLFLTK [GARS1_Y414_R412C_YF]	0.772
VNLVLHLSIAK [FBXO15_Y496_Y496H]	1.36
KLQKFYRQNPD [EHHADH_Y683_YF]	0.498
SLGKGYSVGGC [MC4R_Y35_D37V]	0.898
NPQKSYLIRLF [WAS_Y83_F84L_YF]	0.957
DRIVNYSRASV [ATP7A_Y1459_I1464V]	0.79
VYYDLYGGEKF [PTPN11_Y66_D61V]	1.13
CTLLPYFSAPV [DGKE_Y269_R273P_YF]	1.34
LYEDRYLLGPS [ASS1_Y87_T91P]	1.67
LVKDPYVMFPQ [PLEKHG2_Y489_P484L]	1.93
VNFGAYINDFK [GLB1_Y488_YF]	0.997
LITTLYIGFLG [KCNQ1_Y267]	2.46
GLAKGYIDPET [CSNK1G2_Y195_E194G]	0.795
IVAREYYSDAD [CAMK2A_Y106_E109D]	1.13
HGVSSYDTIIS [LDLR_Y465_V468I]	1.08
ANQDDYISFRH [IMP4_Y226]	0.841
QEMMEYRHQIQ [DES_Y324]	2.13
LNNIIYRVERA [CUX2_Y1470]	1.34
DLSEVYKPCRK [CCDC93_Y176_R179C]	0.935
EFISEHCGEII [EZH2_Y641_Y641H]	1.31

----------
ASSAY TARGET: Grb2 SH2 (UniProt P62993)
Sequence (P62993 whole entry, looked up): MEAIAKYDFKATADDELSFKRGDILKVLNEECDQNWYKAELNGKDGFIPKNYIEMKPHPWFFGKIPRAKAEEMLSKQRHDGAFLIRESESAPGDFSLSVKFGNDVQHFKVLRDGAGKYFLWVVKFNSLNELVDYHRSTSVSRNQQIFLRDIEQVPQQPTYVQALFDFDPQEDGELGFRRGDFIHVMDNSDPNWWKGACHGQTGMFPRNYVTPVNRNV
EXPERIMENTAL PROTOCOL: SH2 binding enrichment of the phosphorylated peptide, bacterial display (enrichment ratio); higher = better substrate or ligand; peptides without Tyr show the background

SEQUENCE TEXT	SH2 binding enrichment
AGKEEYSAMRD [HRAS_Y64_Q61K]	0.867
TFYQMYDKGLV [IARS2_Y231]	0.941
FCRIMYDIFPF [INTS13_Y67_YF]	0.93
HTVVSYAKVRA [CLOCK_Y378_E380K]	1.11
TLLSAYQIPRT [GAB2_Y324_P320L]	0.91
IRKKFYRAILE [CHD7_Y1218_Q1214R_YF]	0.619
PLLEYYRDIFT [CDAN1_Y713]	1.16
GYRVYYTPDSR [PTPRF_Y451]	0.955
LARDMDDKEFF [MET_Y1230_Y1230D_YF]	1.11
GGMAEYTRLHN [EHHADH_Y4]	0.864
AFHGEYIPTVF [RAC2_Y32_P29H]	0.91
VRQQVYKKVEE [HADHA_Y283]	0.736
DVSKEYGHLLP [HRC_Y99]	0.76
PNEAVYTKMMT [G6PD_Y401]	0.899
KPMDTYYDSTR [DYNC2H1_Y2230]	0.903
GIFEDYVEGLR [MYL6_Y89_T85I_YF]	0.866
KMATAYIRRMS [BCO1_Y264]	0.593
MALDRYVAICK [OR2B11_Y127]	0.856
DNEALYDTCFR [TUBB2B_Y208_I210T]	0.725
TLDTDYQMTKR [ADA_Y308]	0.92
IVVVPYEPPEV [TP53_Y220_S215I]	0.835
SLGKGYSVGGC [MC4R_Y35_D37V]	0.888
QTENKYVSVSG [EIF2AK3_Y565_D566V]	0.707
RMGNLYDIDED [GRIN2A_Y1246]	0.599
IVAREYYSKAD [CAMK2B_Y107_E110K]	0.75
SLIDGYFRLTE [JAK2_Y372_A377E_YF]	0.784
RLAQRYLIWEC [SCN5A_Y694]	0.982
DEFLEHRRIVG [FAM221A_Y20_Y20H_YF]	0.813
MTKEQYIKMNQ [ARFGEF2_Y797_R802Q]	0.968
